Cited source for all entries: patent US20100130424A1

- Tested System: T1, human CRH receptor type 2 (human, UniProt Q13324 1-411)
- T1 sequence (looked up): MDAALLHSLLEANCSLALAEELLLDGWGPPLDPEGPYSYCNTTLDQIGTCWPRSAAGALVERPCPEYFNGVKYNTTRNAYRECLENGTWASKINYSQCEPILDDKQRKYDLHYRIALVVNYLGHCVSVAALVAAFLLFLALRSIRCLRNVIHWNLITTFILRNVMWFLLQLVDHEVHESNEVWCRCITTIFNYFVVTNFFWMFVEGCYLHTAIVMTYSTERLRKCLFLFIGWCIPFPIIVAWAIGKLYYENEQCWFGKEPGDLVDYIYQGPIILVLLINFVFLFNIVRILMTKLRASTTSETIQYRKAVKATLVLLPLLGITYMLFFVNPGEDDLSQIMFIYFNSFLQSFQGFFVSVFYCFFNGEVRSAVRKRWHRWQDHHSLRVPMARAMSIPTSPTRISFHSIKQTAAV
- Experimental Protocol: cell-based or functional assay
No end group written: not given here.
Quantity Name: pA50, cAMP

# annotated cases, reported pA50, cAMP shown
>>> meas_value("TKFTLSLDVPCNIMNLLFNIAKAKNLRAQAAANAHLMAQI-NH2 [Cys-variant CRHR2 peptide agonist, SEQ ID NO: 12]")
"7.86 -log M"
>>> meas_value("TKFCLSLDVPTNIMNLLFNIAKAKNLRAQAAANAHLMAQI (NES-PEG (about 20 kDa) on Cys 4; C-terminal amide) [Pegylated Cys-variant CRHR2 peptide agonist (NES linker, PEG about 20 kDa), SEQ ID NO: 58]")
"~7.14 -log M"
>>> meas_value("TKFTLSLDVPTNIMCLLFNIAKAKNLRAQAAANAHLMAQI (NES-PEG (about 20 kDa) on Cys 15; C-terminal amide) [Pegylated Cys-variant CRHR2 peptide agonist (NES linker, PEG about 20 kDa), SEQ ID NO: 69]")
"7.45 -log M"

In: For the binder TKFTLSLDVPTNCMNLLFNIAKAKNLRAQAAANAHLMAQI-NH2 [Cys-variant CRHR2 peptide agonist, SEQ ID NO: 14] , what pA50, cAMP is on record?
Out: ~7.34 -log M

In: Next entry: TKFTLSLDVPTNIMNLLFNIAKAKNLRAQAAANACLMAQI (NES-PEG (about 20 kDa) on Cys 35; C-terminal amide) [Pegylated Cys-variant CRHR2 peptide agonist (NES linker, PEG about 20 kDa), SEQ ID NO: 89]
Out: 8.48 -log M

In: Next entry: TKFTLSLDCPTNIMNLLFNIAKAKNLRAQAAANAHLMAQI (NES-PEG (about 20 kDa) on Cys 9; C-terminal amide) [Pegylated Cys-variant CRHR2 peptide agonist (NES linker, PEG about 20 kDa), SEQ ID NO: 63]
Out: ~7.45 -log M

In: Next entry: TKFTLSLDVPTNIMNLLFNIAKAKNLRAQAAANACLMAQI-NH2 [Cys-variant CRHR2 peptide agonist, SEQ ID NO: 36]
Out: 9.1 -log M

In: Next entry: TKFTLSLDVPTNIMNLLFNIAKAKNLRACAAANAHLMAQI-NH2 [Cys-variant CRHR2 peptide agonist, SEQ ID NO: 30]
Out: 8.4 -log M

In: Next entry: TKFTLSLDVPTNIMNLLFNIAKAKNLRAQAAANAHLMAQC (NES-PEG (about 20 kDa) on Cys 40; C-terminal amide) [Pegylated Cys-variant CRHR2 peptide agonist (NES linker, PEG about 20 kDa), SEQ ID NO: 94]
Out: ~7 -log M

In: Next entry: TKFTLSLDVPTNIMNLLFCIAKAKNLRAQAAANAHLMAQI (NES-PEG (about 20 kDa) on Cys 19; C-terminal amide) [Pegylated Cys-variant CRHR2 peptide agonist (NES linker, PEG about 20 kDa), SEQ ID NO: 73]
Out: 8.29 -log M

In: Next entry: TKFTLSLDVPTNIMNLLFNIAKAKNLRAQAAANAHCMAQI-NH2 [Cys-variant CRHR2 peptide agonist, SEQ ID NO: 37]
Out: 8.58 -log M

In: Next entry: CKFTLSLDVPTNIMNLLFNIAKAKNLRAQAAANAHLMAQI (NES-PEG (about 20 kDa) on Cys 1; C-terminal amide) [Pegylated Cys-variant CRHR2 peptide agonist (NES linker, PEG about 20 kDa), SEQ ID NO: 55]
Out: ~7.93 -log M
